assay: physchem; conditions: aqueous buffer
Description: In vitro solubility in rat hepatocytes
measurement type: solubility (µM)

compound=C[C@H](C(=O)Nc1cc(C2CC2)[nH]n1)c1ccc(N2CCOC2=O)cc1 measurement_type=solubility measured_value=225

###

biological target: Cyclin-dependent kinase 1/cyclin B (Homo sapiens, UniProt P06493); assay: Inhibition of cyclin dependent kinase 1-cyclin B (n=4); assay type: protein-complex assay
pIC50: −log10 of the molar value.
measurement type: pIC50

compound=C[C@H](C(=O)Nc1cc(C2CC2)[nH]n1)c1ccc(N2CCOC2=O)cc1 target_entity="Cyclin-dependent kinase 1/cyclin B (Homo sapiens, UniProt P06493)" measurement_type=pIC50 measured_value=6.61

###

molecular target: Cyclin-dependent kinase 2/cyclin E (Homo sapiens, UniProt P24941); test: Inhibition of cyclin dependent kinase 2-cyclin E (n=6); assay type: protein-complex assay
measurement type: IC50 (nM)

compound=C[C@H](C(=O)Nc1cc(C2CC2)[nH]n1)c1ccc(N2CCCC2=O)cc1 measurement_type=IC50 measured_value=55
